The values you see were collected from patent US20230405081A1.

Experiment: in vitro
Details: human, real gastrointestinal fluid or homogenate, pH 7, % Peptide remaining at 1 hours (T = 1 h)

Chem Smiles | Readout Units | remaining at 1 h, 1 mg/ml
CC[C@H](C)[C@@H]1NC(=O)[C@H](Cc2ccc(O)cc2)NC(=O)[C@@H](N)CSSC[C@@H](C(=O)N2CCC[C@H]2C(=O)N[C@@H](CC(C)C)C(=O)NCC(N)=O)NC(=O)[C@H](CC(N)=O)NC(=O)[C@H](CCC(N)=O)NC1=O | % | 6.6
CC[C@H](C)[C@H](NC(=O)[C@H](Cc1ccc(O)cc1)NC(=O)[C@@H](N)CS)C(=O)N[C@@H](CCC(N)=O)C(=O)N[C@@H](CC(N)=O)C(=O)N[C@@H](CS)C(=O)N1CCC[C@H]1C(=O)N[C@H](CC(C)C)C(=O)NCC(N)=O | % | 0
